# Tested on: Plasmodium falciparum
# ASSAY_REMARKS: Antiplasmodial activity against chloroquine-sensitive Plasmodium falciparum 3D7 assessed as parasitic growth inhibition incubated for 72 hrs by SYBR Green staining based fluorescence analysis
# Format: functional, organism-based
# REPORTED_CONDITIONS: 3D7, 72 h
READOUT_NAME: IC50 (µM)
Give bare numbers, in µM.

[
  {
    "COMPOUND_STRUCTURE_STRING": "OB1OCc2ccc(OCc3cn(CCN4CCN(c5ccnc6cc(Cl)ccc56)CC4)nn3)cc21",
    "READOUT_NAME": "IC50",
    "UNIT": "µM",
    "READOUT_NUMBER": 5.31
  },
  {
    "COMPOUND_STRUCTURE_STRING": "OB1OCc2ccc(OCc3cn(CCNc4ccnc5cc(Cl)ccc45)nn3)cc21",
    "READOUT_NAME": "IC50",
    "UNIT": "µM",
    "READOUT_NUMBER": 4.15
  },
  {
    "COMPOUND_STRUCTURE_STRING": "CC1(C)OB(c2ccc(OCc3cn(CCNc4ccnc5cc(Cl)ccc45)nn3)cc2C=O)OC1(C)C",
    "READOUT_NAME": "IC50",
    "UNIT": "µM",
    "READOUT_NUMBER": 7.37
  },
  {
    "COMPOUND_STRUCTURE_STRING": "CC1(C)OB(c2ccc(OCc3cn(-c4ccnc5ccc(Cl)cc45)nn3)cc2C=O)OC1(C)C",
    "READOUT_NAME": "IC50",
    "UNIT": "µM",
    "READOUT_NUMBER": 6.49
  },
  {
    "COMPOUND_STRUCTURE_STRING": "CC1(C)OB(c2ccc(OCc3cn(CCCNc4ccnc5cc(Cl)ccc45)nn3)cc2C=O)OC1(C)C",
    "READOUT_NAME": "IC50",
    "UNIT": "µM",
    "READOUT_NUMBER": 5.18
  }
]

Required: IC50, one value per compound below.
1. O=Cc1cc(OCc2cn(CCCNc3ccnc4cc(Cl)ccc34)nn2)ccc1Br
2. OB1OCc2ccc(OCc3cn(-c4ccnc5ccc(Cl)cc45)nn3)cc21
3. O=Cc1cc(OCc2cn(-c3ccnc4ccc(Cl)cc34)nn2)ccc1Br
4. O=Cc1cc(OCc2cn(CCNc3ccnc4cc(Cl)ccc34)nn2)ccc1Br
5. O=Cc1cc(OCc2cn(CCN3CCN(c4ccnc5cc(Cl)ccc45)CC3)nn2)ccc1Br
6. OB1OCc2ccc(OCc3cn(CCCNc4ccnc5cc(Cl)ccc45)nn3)cc21

// result
1. 6.29
2. 4.87
3. 6.19
4. 4.3
5. 8.34
6. 4.13

----------
# ASSAY_REMARKS: Cytotoxicity against African green monkey Vero cells assessed as reduction in cell viability incubated for 24 hrs by MTT assay
# Type: toxicity, cell-based
# REPORTED_CONDITIONS: African green monkey (Chlorocebus sabaeus)
For each of the molecules below, state its IC50 at 24 h.

[
  {
    "COMPOUND_STRUCTURE_STRING": "O=C(CCN1C(=O)c2ccccc2C1=O)NCCCCCCCCNc1ccnc2cc(Cl)ccc12",
    "IC50 at 24 h": "> 198 µM"
  },
  {
    "COMPOUND_STRUCTURE_STRING": "O=C(CCN1C(=O)c2ccccc2C1=O)NCCNc1ccnc2cc(Cl)ccc12",
    "IC50 at 24 h": "> 237 µM"
  },
  {
    "COMPOUND_STRUCTURE_STRING": "CCN(CC)c1ccc2c(c1)C(=O)N(CC(=O)NCCNc1ccnc3cc(Cl)ccc13)C2=O",
    "IC50 at 24 h": "44.4 µM"
  },
  {
    "COMPOUND_STRUCTURE_STRING": "CCN(CC)c1ccc2c(c1)C(=O)N(CC(=O)NCCCCCCNc1ccnc3cc(Cl)ccc13)C2=O",
    "IC50 at 24 h": "> 187 µM"
  }
]

Required: IC50 at 24 h, one value per molecule below.
1. O=C(CN1C(=O)c2ccccc2C1=O)NCCCCCCCCNc1ccnc2cc(Cl)ccc12
2. O=C(CCN1C(=O)c2ccc(F)cc2C1=O)NCCCCCCNc1ccnc2cc(Cl)ccc12
3. O=C(CN1C(=O)c2ccc(N3CCN(CCO)CC3)cc2C1=O)NCCNc1ccnc2cc(Cl)ccc12
4. O=C(CCN1C(=O)c2ccccc2C1=O)NCCCCNc1ccnc2cc(Cl)ccc12
5. O=C(CCN1C(=O)c2ccc(N3CCOCC3)cc2C1=O)NCCCCCCNc1ccnc2cc(Cl)ccc12

// result
1. > 203 µM
2. 57.2 µM
3. > 186 µM
4. > 222 µM
5. > 178 µM

----------
For each of the molecules below, state its IC50.
# ASSAY_REMARKS: Cytotoxicity against Chinese hamster CHO cells assessed as reduction in cell viability by MTT assay
# Assay type: toxicity, cell-based
# REPORTED_CONDITIONS: Chinese hamster (Cricetulus griseus)
Numbers only, in µM.

[
  {
    "COMPOUND_STRUCTURE_STRING": "Cc1ccc(/C=C/C(=O)c2ccc(S(=O)(=O)NCCCNc3cncc4cc(Cl)ccc34)cc2)cc1",
    "IC50 (µM)": 25.1
  },
  {
    "COMPOUND_STRUCTURE_STRING": "COc1ccc(/C=C/C(=O)c2ccc(S(=O)(=O)NCCNc3cncc4cc(Cl)ccc34)cc2)cc1OC",
    "IC50 (µM)": 45.1
  }
]

// query Given the entry `O=C(/C=C/c1ccc2c(c1)OCO2)c1ccc(S(=O)(=O)NCCCNc2cncc3cc(Cl)ccc23)cc1` , report its measured IC50.
// result 34.1

----------
# ASSAY_REMARKS: Cytotoxicity against African green monkey Vero cells assessed as reduction in cell viability incubated for 24 hrs by fluorescence based analysis
# Format: toxicity
# REPORTED_CONDITIONS: African green monkey (Chlorocebus sabaeus)
Rule: IC50 at 24 h below 30 µM gives criterion met. Equal to or above 30 µM gives criterion not met.

Reference set (6 entries):
[
  {
    "COMPOUND_STRUCTURE_STRING": "O=C1c2ccc(N3CCN(CCO)CC3)cc2C(=O)N1CCNc1ccnc2cc(Cl)ccc12",
    "CAT": "criterion met"
  },
  {
    "COMPOUND_STRUCTURE_STRING": "O=C1c2cccc(N3CCOCC3)c2C(=O)N1CCNc1ccnc2cc(Cl)ccc12",
    "CAT": "criterion met"
  },
  {
    "COMPOUND_STRUCTURE_STRING": "O=C1c2ccc(N3CCOCC3)cc2C(=O)N1CCCCCCNc1ccnc2cc(Cl)ccc12",
    "CAT": "criterion met"
  },
  {
    "COMPOUND_STRUCTURE_STRING": "O=C1c2ccc(N3CCCCC3)cc2C(=O)N1CCCCNc1ccnc2cc(Cl)ccc12",
    "CAT": "criterion met"
  },
  {
    "COMPOUND_STRUCTURE_STRING": "O=C1c2ccc(N3CCOCC3)cc2C(=O)N1CCCCNc1ccnc2cc(Cl)ccc12",
    "CAT": "criterion met"
  },
  {
    "COMPOUND_STRUCTURE_STRING": "O=C1c2ccc(N3CCCCC3)cc2C(=O)N1CCNc1ccnc2cc(Cl)ccc12",
    "CAT": "criterion met"
  }
]

// query Does the reported IC50 at 24 h of `O=C1c2cccc(N3CCCCC3)c2C(=O)N1CCCNc1ccnc2cc(Cl)ccc12` stay below 30 µM?
// result criterion not met

// query Does the reported IC50 at 24 h of `O=C1c2ccc(N3CCN(CCO)CC3)cc2C(=O)N1CCCCNc1ccnc2cc(Cl)ccc12` stay below 30 µM?
// result criterion met

// query Does the reported IC50 at 24 h of `O=C1c2cccc(N3CCCCC3)c2C(=O)N1CCCCCCNc1ccnc2cc(Cl)ccc12` stay below 30 µM?
// result criterion not met

// query Does the reported IC50 at 24 h of `O=C1c2cccc(N3CCOCC3)c2C(=O)N1CCCCCCNc1ccnc2cc(Cl)ccc12` stay below 30 µM?
// result criterion not met

// query Does the reported IC50 at 24 h of `O=C1c2ccc(N3CCOCC3)cc2C(=O)N1CCNc1ccnc2cc(Cl)ccc12` stay below 30 µM?
// result criterion met

----------
For each of the molecules below, state its IC50.
# Test system: Plasmodium falciparum
# ASSAY_REMARKS: Antiplasmodial activity against Plasmodium falciparum K1 assessed as growth inhibition measured after 72 hrs by SYBR green dye based assay
# Assay type: functional, organism-based
# REPORTED_CONDITIONS: K1, 72 h
Numbers only, in nM.

Field: example entries. Status: answers known.
[
  {
    "MOLECULE": "CC(CN1CCN(Cc2ccc3c(c2)OCO3)CC1)Nc1ccnc2cc(Cl)ccc12 (stereo not given)",
    "UNIT": "nM",
    "IC50": 71.4
  },
  {
    "MOLECULE": "Clc1ccc2c(NC(CN3CCN(Cc4ccccc4)CC3)n3ccc4ccccc43)ccnc2c1 (stereo not given)",
    "UNIT": "nM",
    "IC50": 529
  }
]

Required: IC50, one value per molecule below.
1. O=C(c1ccco1)N1CCN(CCNc2ccnc3cc(Cl)ccc23)CC1
2. CC(CN1CCN(c2ccccc2)CC1)Nc1ccnc2cc(Cl)ccc12 (stereo not given)
3. CCOC(=O)N1CCN(CC(CC(C)C)Nc2ccnc3cc(Cl)ccc23)CC1 (stereo not given)
4. CC(C)CC(CN1CCN(c2ncccn2)CC1)Nc1ccnc2cc(Cl)ccc12 (stereo not given)
5. CCN1CCN(CC(C)Nc2ccnc3cc(Cl)ccc23)CC1 (stereo not given)

// result
[4230, 784, 412, 352, 362]

// query Given the entry CCN1CCN(CC(CC(C)C)Nc2ccnc3cc(Cl)ccc23)CC1 (stereo not given) , report its measured IC50.
// result 97.8
